Source: PubChem BioAssay AID1159580

assay_summary: chemical genetic growth profiling, strain panel (AID 1159580);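 further: tested at 20 µM; growth read once vehicle control cultures reached saturation at 30 °C; 1 = growth at the plate median or of vehicle wells; lower values mean less growth of the strain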
condition_summary: S. cerevisiae deletion strains, growth OD, locus YDL035C, strain GPR1, hits give low values
In all, about 5,500 compounds went through this assay and about 2,000 (36%) were called active. About 18% were inconclusive and are not listed. This is one part of the list.
observed_property: normalized growth

CC(CCC(=O)O)[C@H]1CCC2C3CC[C@@H]4CC(=O)CC[C@]4(C)C3C=C[C@@]21C (some centres undefined): 0.832 (active)
CC(C)=CCCC(C)C1CC[C@@]2(C)C3=C(CC[C@]12C)C1(C)CC[C@H](O)C(C)(C)C1CC3 (some centres undefined): 0.904 (inactive)
CC(=O)OCC(=O)[C@@]1(O)[C@H](C)CC2C3CCC4=CC(=O)C=C[C@]4(C)[C@@]3(F)[C@@H](O)C[C@@]21C (some centres undefined): 1.03 (inactive)
CC(C)=CCCC(C)[C@@H]1CC[C@]2(C)C3=C(CC[C@@]12C)C1(C)CC[C@H](O)C(C)(C)C1CC3 (some centres undefined): 0.886 (inactive)
N[C@@H](CCC(=O)N[C@@H](CS)C(=O)NCC(=O)O)C(=O)O: 1.01 (inactive)
CCCOc1ccc2nc(NC(=O)OC)[nH]c2c1: 1.01 (inactive)

May I ask what normalized growth has been recorded for CC(N=C(NC#N)Nc1ccncc1)C(C)(C)C (centres undefined) ?
0.999 (inactive)

Same lookup for CC(C)CCCC(C)C1CC[C@@]2(C)C3=C(CC[C@]12C)[C@@]1(C)CC[C@H](O)C(C)(C)C1CC3 (some centres undefined) , please.
1 (inactive)

// same read-out, input: CCN1CCN(C(=O)NC(C(=O)N[C@@H]2C(=O)N3[C@@H]2SC(C)(C)[C@@H]3C(=O)O)c2ccccc2)C(=O)C1=O (some centres undefined)
0.988 (inactive)

====

assay_summary: chemical genetic growth profiling, strain panel (AID 1159580);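 further: tested at 20 µM; growth read once vehicle control cultures reached saturation at 30 °C; 1 = growth at the plate median or of vehicle wells; lower values mean less growth of the strain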
condition_summary: S. cerevisiae deletion strains, growth OD, locus YLR027C, strain aat2, hits give low values
The campaign covered roughly 5,500 compounds. About 2,000 (36%) were called active. Roughly 18% stayed inconclusive and do not appear here. The list shows a part of the results.
Mark rule met only for normalized growth values smaller than 1; exact matches and larger values are rule not met.

Worked set:
Cc1cc(=O)oc2cc(O)cc(O)c12: rule met
COC(=O)/C(=C1\OC(=O)C(c2ccccc2)=C1O)c1ccccc1: rule met
O=C(CC(=O)c1ccccc1)c1ccccc1: rule met
Oc1c(Cl)cc(Cl)cc1Sc1cc(Cl)cc(Cl)c1O: rule met
CC(C)=CCc1c2c(c3occ(-c4ccc(O)c(O)c4)c(=O)c3c1O)C=CC(C)(C)O2: rule met

Say whether its normalized growth is strictly beneath 1. Entry: `COc1cc(C/C=C/c2ccccc2)c(OC)cc1O`
rule met

Would you kindly repeat that for NCC(N)C(=O)c1ccccc1 (centres undefined) ?
rule not met

And for `N[C@@H](CCC(=O)N[C@@H](CS)C(=O)NCC(=O)O)C(=O)O` ?
rule met

====

assay_summary: chemical genetic growth profiling, strain panel (AID 1159580);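 further: tested at 20 µM; growth read once vehicle control cultures reached saturation at 30 °C; 1 = growth at the plate median or of vehicle wells; lower values mean less growth of the strain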
condition_summary: S. cerevisiae deletion strains, growth OD, locus YIL125W, strain kgd1, hits give low values
The campaign covered roughly 5,500 compounds. About 2,000 (36%) were called active. About 18% were inconclusive and are not listed. The list shows a part of the results.
observed_property: normalized growth
Reply: number alone, nothing else.

COC(=O)c1c(OC)cc2c(c1C)Oc1c(Cl)c(O)c(Cl)c(C)c1C(=O)O2: 0.986
CC1(C)CC2C1CC[C@]1(CBr)CCC3C(CC(=O)O)C(=O)O[C@@]32C1 (stereo partly specified): 0.984
COc1ccc([C@@H]2CC(=O)c3c(O)cc(O[C@@H]4O[C@H](CO[C@H]5O[C@@H](C)[C@H](O)[C@@H](O)[C@H]5O)[C@@H](O)[C@H](O)[C@H]4O)cc3O2)cc1O: 0.978
CC(=O)O[C@H]1CC[C@@]2(C)C(=CC(=O)C3C4CCC(C(C)CCCC(C)C)[C@@]4(C)CCC32)C1 (stereo partly specified): 1.01
NC1=NCCN1CC(=O)O: 0.984
COc1c(C)c2c(c(C)c1Cl)Oc1c(Cl)c(OC)c(Cl)c(C)c1C(=O)O2: 1.02
CS(=O)(=O)Nc1ccc([N+](=O)[O-])cc1Oc1ccccc1: 0.98
CCOC(=O)[C@H](CCc1ccccc1)N[C@@H](C)C(=O)N1CCC[C@H]1C(=O)O: 1.01
CC(=O)Oc1c(Cl)c(C)c2c(c1Cl)OC(=O)c1c(C)c(Cl)c(OC(C)=O)c(Cl)c1O2: 1.02
NS(=O)(=O)c1cc2c(cc1Cl)NC(CSCc1ccccc1)=NS2(=O)=O: 0.986

Look up normalized growth: `CN(C)C(=O)Oc1cccc([N+](C)(C)C)c1`
0.998

Now consider `OC[C@H]1O[C@@H](O[C@H]2[C@H](O)[C@@H](O)[C@@H](O)O[C@@H]2CO)[C@H](O)[C@@H](O)[C@@H]1O` and answer again.
1.01
